- Test system: TNFα
- assay notes: TNFα inhibition, LPS-induced PBMCs or CD14+ monocytes, Meso Scale assay
- Format: cell-based
- details: tested at 10 μM, LPS 100 ng/mL 18-24 h; read-out: % Inhibition compared to DMSO, TNFα
recorded metric: inhibition at 10 µM

Please review the entries below; each comes with its answer.
{"compound": "O=C1CCC(N2Cc3c(cc(C(F)(F)F)cc3C3CCCC3)C2=O)C(=O)N1 (stereo not drawn)", "inhibition at 10 µM": "10 to 25%"}
{"compound": "O=C1CCC(N2Cc3c(cc(F)cc3C3CC4CCC3C4)C2=O)C(=O)N1 (stereo not drawn)", "inhibition at 10 µM": "10 to 25%"}

Could you now look at the following compound, please?
Request: Give its inhibition at 10 µM value. Item: C[C@H](c1cccc2c1CN(C1CCC(=O)NC1=O)C2=O)C(F)(F)F (stereo partly drawn)
Response: 10 to 25%
